# Tested on: NCI-H1993
# TEST_PROTOCOL: relative viability (nuclei count vs DMSO), 5 days (fraction); higher = more cells survive
# TEST_CONTEXT: first compound 0.08 µM
The reader will find reported relative viability values listed item by item below.
Answer using only a numeral; do not append any unit.

| COMPOUND | RESULT |
| --- | --- |
| O=c1cc(-c2cccc3c2Sc2ccccc2S3)oc(N2CCOCC2)c1 + CC(C)C[C@H](NC(=O)[C@H](Cc1ccccc1)NC(=O)c1cnccn1)B(O)O [Bortezomib] (partner 0.002 µM) | 1.12 |
| O=c1cc(-c2cccc3c2Sc2ccccc2S3)oc(N2CCOCC2)c1 + CS(=O)(=O)CCNCc1ccc(-c2ccc3ncnc(Nc4ccc(OCc5cccc(F)c5)c(Cl)c4)c3c2)o1 [Lapatinib] (partner 2 µM) | 0.773 |
| O=c1cc(-c2cccc3c2Sc2ccccc2S3)oc(N2CCOCC2)c1 + CC(=O)Nc1cccc(-n2c(=O)n(C3CC3)c(=O)c3c(Nc4ccc(I)cc4F)n(C)c(=O)c(C)c32)c1 [Trametinib] (partner 0.02 µM) | 0.462 |
| O=c1cc(-c2cccc3c2Sc2ccccc2S3)oc(N2CCOCC2)c1 + Nc1ncn([C@H]2C[C@H](O)[C@@H](CO)O2)c(=O)n1 [Decitabine] (partner 2 µM) | 0.593 |

# evaluate next
Look up and state reported relative viability for COc1nc(C)cnc1NS(=O)(=O)c1cccnc1-c1ccc(-c2nnco2)cc1 [Zibotentan] + COc1cccc2cc(-c3nc([C@H]4CC[C@H](C(=O)O)CC4)n4ncnc(N)c34)[nH]c12 [OSI-027] (partner 0.5 µM)
0.522

====

# Test system: NCI-H1915
# TEST_PROTOCOL: relative viability (nuclei count vs DMSO), 5 days (fraction); higher = more cells survive
# TEST_CONTEXT: first compound 2.53 µM
READOUT_NAME: relative viability
Answer using only a numeral; do not append any unit.

Please review the entries below; each comes with its answer.
| COMPOUND | relative viability |
| --- | --- |
| COc1nc(C)cnc1NS(=O)(=O)c1cccnc1-c1ccc(-c2nnco2)cc1 [Zibotentan] + O=C(CCCCCCC(=O)Nc1ccccc1)NO [Vorinostat] (partner 1 µM) | 0.572 |
| O=c1cc(-c2cccc3c2Sc2ccccc2S3)oc(N2CCOCC2)c1 + NC(=O)Nc1cc(-c2cccc(F)c2)sc1C(=O)N[C@H]1CCCNC1 [AZD7762] (partner 0.2 µM) | 0.681 |

# evaluate next
Look up and state reported relative viability for O=c1cc(-c2cccc3c2Sc2ccccc2S3)oc(N2CCOCC2)c1 + CC(=O)c1c(C)c2cnc(Nc3ccc(N4CCNCC4)cn3)nc2n(C2CCCC2)c1=O [Palbociclib] (partner 0.5 µM)
0.509

====

# System: NCI-H2347
# TEST_PROTOCOL: relative viability (nuclei count vs DMSO), 5 days (fraction); higher = more cells survive
# TEST_CONTEXT: first compound 0.01 µM
READOUT_NAME: relative viability
Answer using only a numeral; do not append any unit.

Please review the entries below; each comes with its answer.
| COMPOUND | relative viability |
| --- | --- |
| CCN(CC)CCCCNc1ncc2cc(-c3cc(OC)cc(OC)c3)c(NC(=O)NC(C)(C)C)nc2n1 + CCNC(=O)c1noc(-c2cc(C(C)C)c(O)cc2O)c1-c1ccc(CN2CCOCC2)cc1 [Luminespib] (partner 0.01 µM) | 0.675 |
| CCN(CC)CCCCNc1ncc2cc(-c3cc(OC)cc(OC)c3)c(NC(=O)NC(C)(C)C)nc2n1 + Nc1ncn([C@H]2C[C@H](O)[C@@H](CO)O2)c(=O)n1 [Decitabine] (partner 2 µM) | 0.573 |
| CCN(CC)CCCCNc1ncc2cc(-c3cc(OC)cc(OC)c3)c(NC(=O)NC(C)(C)C)nc2n1 + C[C@@H](Oc1cc(-c2cnn(C3CCNCC3)c2)cnc1N)c1c(Cl)ccc(F)c1Cl [Crizotinib] (partner 1 µM) | 0.766 |

# evaluate next
Look up and state reported relative viability for CCN(CC)CCCCNc1ncc2cc(-c3cc(OC)cc(OC)c3)c(NC(=O)NC(C)(C)C)nc2n1 + COc1cccc2cc(-c3nc([C@H]4CC[C@H](C(=O)O)CC4)n4ncnc(N)c34)[nH]c12 [OSI-027] (partner 0.5 µM)
0.419

====

The reader will find reported relative viability values listed item by item below.
# Test system: HCC-44
# TEST_PROTOCOL: relative viability (nuclei count vs DMSO), 5 days (fraction); higher = more cells survive
# TEST_CONTEXT: first compound 0.03162 µM
Answer using only a numeral; do not append any unit.

| COMPOUND | SYSTEM_UNDER_TEST | relative viability |
| --- | --- | --- |
| CCN(CC)CCCCNc1ncc2cc(-c3cc(OC)cc(OC)c3)c(NC(=O)NC(C)(C)C)nc2n1 + CCNC(=O)c1noc(-c2cc(C(C)C)c(O)cc2O)c1-c1ccc(CN2CCOCC2)cc1 [Luminespib] (partner 0.01 µM) | HCC-44 | 1.06 |
| O=c1cc(N2CCOCC2)oc2c(-c3cccc4c3sc3ccccc34)cccc12 + N=C(N)NC(=N)NCCc1ccccc1 [Phenformin] (partner 250 µM) | HCC-44 | 0.187 |
| O=c1cc(N2CCOCC2)oc2c(-c3cccc4c3sc3ccccc34)cccc12 + Cc1nc(NC(=O)N2CCC[C@H]2C(N)=O)sc1-c1ccnc(C(C)(C)C(F)(F)F)c1 [Alpelisib] (partner 2 µM) | HCC-44 | 0.841 |

Look up and state reported relative viability for CCN(CC)CCCCNc1ncc2cc(-c3cc(OC)cc(OC)c3)c(NC(=O)NC(C)(C)C)nc2n1 + CC(=O)Nc1cccc(-n2c(=O)n(C3CC3)c(=O)c3c(Nc4ccc(I)cc4F)n(C)c(=O)c(C)c32)c1 [Trametinib] (partner 0.02 µM)
1.08

Look up and state reported relative viability for CCN(CC)CCCCNc1ncc2cc(-c3cc(OC)cc(OC)c3)c(NC(=O)NC(C)(C)C)nc2n1 + CC(=O)c1c(C)c2cnc(Nc3ccc(N4CCNCC4)cn3)nc2n(C2CCCC2)c1=O [Palbociclib] (partner 0.5 µM)
1.07

====

The reader will find reported relative viability values listed item by item below.
# Test system: NCI-H2085
# TEST_PROTOCOL: relative viability (nuclei count vs DMSO), 5 days (fraction); higher = more cells survive
# TEST_CONTEXT: first compound 0.1 µM
Answer using only a numeral; do not append any unit.

| COMPOUND | relative viability |
| --- | --- |
| CCN(CC)CCCCNc1ncc2cc(-c3cc(OC)cc(OC)c3)c(NC(=O)NC(C)(C)C)nc2n1 + N=C(N)NC(=N)NCCc1ccccc1 [Phenformin] (partner 250 µM) | 0.76 |
| CCN(CC)CCCCNc1ncc2cc(-c3cc(OC)cc(OC)c3)c(NC(=O)NC(C)(C)C)nc2n1 + CS(=O)(=O)CCNCc1ccc(-c2ccc3ncnc(Nc4ccc(OCc5cccc(F)c5)c(Cl)c4)c3c2)o1 [Lapatinib] (partner 2 µM) | 0.828 |
| O=c1cc(N2CCOCC2)oc2c(-c3cccc4c3sc3ccccc34)cccc12 + N=C(N)NC(=N)NCCc1ccccc1 [Phenformin] (partner 250 µM) | 0.625 |
| CCN(CC)CCCCNc1ncc2cc(-c3cc(OC)cc(OC)c3)c(NC(=O)NC(C)(C)C)nc2n1 + CC(=O)c1c(C)c2cnc(Nc3ccc(N4CCNCC4)cn3)nc2n(C2CCCC2)c1=O [Palbociclib] (partner 0.5 µM) | 0.443 |
| O=c1cc(N2CCOCC2)oc2c(-c3cccc4c3sc3ccccc34)cccc12 + Nc1ncn([C@H]2C[C@H](O)[C@@H](CO)O2)c(=O)n1 [Decitabine] (partner 2 µM) | 0.526 |
| O=c1cc(N2CCOCC2)oc2c(-c3cccc4c3sc3ccccc34)cccc12 + COc1cc2c(Oc3ccc(NC(=O)C4(C(=O)Nc5ccc(F)cc5)CC4)cc3F)ccnc2cc1OCCCN1CCOCC1 [Foretinib] (partner 0.25 µM) | 0.961 |
| CCN(CC)CCCCNc1ncc2cc(-c3cc(OC)cc(OC)c3)c(NC(=O)NC(C)(C)C)nc2n1 + Nc1ncn([C@H]2C[C@H](O)[C@@H](CO)O2)c(=O)n1 [Decitabine] (partner 2 µM) | 0.564 |

# evaluate next
Look up and state reported relative viability for CCN(CC)CCCCNc1ncc2cc(-c3cc(OC)cc(OC)c3)c(NC(=O)NC(C)(C)C)nc2n1 + CCNC(=O)c1noc(-c2cc(C(C)C)c(O)cc2O)c1-c1ccc(CN2CCOCC2)cc1 [Luminespib] (partner 0.01 µM)
0.402

====

# Tested on: LOU-NH91
# TEST_PROTOCOL: relative viability (nuclei count vs DMSO), 5 days (fraction); higher = more cells survive
# TEST_CONTEXT: first compound 2.53 µM
READOUT_NAME: relative viability
Answer using only a numeral; do not append any unit.

Please review the entries below; each comes with its answer.
| COMPOUND | relative viability |
| --- | --- |
| O=c1cc(-c2cccc3c2Sc2ccccc2S3)oc(N2CCOCC2)c1 + CCNC(=O)c1noc(-c2cc(C(C)C)c(O)cc2O)c1-c1ccc(CN2CCOCC2)cc1 [Luminespib] (partner 0.01 µM) | 0.354 |
| COc1nc(C)cnc1NS(=O)(=O)c1cccnc1-c1ccc(-c2nnco2)cc1 [Zibotentan] + COc1cc2c(Oc3ccc(NC(=O)C4(C(=O)Nc5ccc(F)cc5)CC4)cc3F)ccnc2cc1OCCCN1CCOCC1 [Foretinib] (partner 0.25 µM) | 0.888 |

# evaluate next
Look up and state reported relative viability for O=c1cc(-c2cccc3c2Sc2ccccc2S3)oc(N2CCOCC2)c1 + Nc1ncn([C@H]2C[C@H](O)[C@@H](CO)O2)c(=O)n1 [Decitabine] (partner 2 µM)
0.777
